Study System: cynomolgus PDL1, recombinant (Sino Biological) / PDL1-Fc chimeric protein (cynomolgus (Macaca fascicularis), UniProt G7PSE7 19-238)
Sequence (G7PSE7 entry or part of it mutant limits assumed): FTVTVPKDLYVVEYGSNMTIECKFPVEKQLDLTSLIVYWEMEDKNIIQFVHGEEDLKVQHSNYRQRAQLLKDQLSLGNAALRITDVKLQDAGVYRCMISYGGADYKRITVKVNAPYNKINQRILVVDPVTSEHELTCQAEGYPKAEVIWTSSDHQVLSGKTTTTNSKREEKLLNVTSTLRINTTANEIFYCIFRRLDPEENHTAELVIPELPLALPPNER
Assay Overview: SPR Biacore T200; cynomolgus PDL1 (Sino Biological) captured; scFv as analyte
pKd: −log10 of the molar value.
Listed binders paired with reported pKd

# Binder, Bound Sign, pKd
measured = [
    ("PRO1392 (33-03-G02-sc18 scFv) (scFv) scFv: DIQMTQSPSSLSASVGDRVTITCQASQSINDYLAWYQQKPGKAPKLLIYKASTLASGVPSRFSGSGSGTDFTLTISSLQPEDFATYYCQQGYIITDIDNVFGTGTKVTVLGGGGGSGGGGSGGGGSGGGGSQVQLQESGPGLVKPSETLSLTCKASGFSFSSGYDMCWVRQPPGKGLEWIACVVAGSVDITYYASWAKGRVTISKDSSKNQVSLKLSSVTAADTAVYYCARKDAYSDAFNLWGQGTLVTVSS", "=", 10.70),
    ("PRO830 (33-03-G02-sc01 scFv) (scFv, also called 33-03-G02 CDR) scFv: DIQMTQSPSSLSASVGDRVTITCQASQSINDYLAWYQQKPGKAPKLLIYKASTLASGVPSRFSGSGSGTDFTLTISSLQPEDFATYYCQQGYIITDIDNVFGTGTKVTVLGGGGGSGGGGSGGGGSGGGGSQVQLQESGPGLVKPSETLSLTCKVSGFSFSSGYDMCWIRQPPGKGLEWIGCVVAGSVDITYYASWAKGRVTISVDSSKNQFSLKLSSVTAADTAVYYCARKDAYSDAFNLWGQGTLVTVSS", "=", 10.13),
    ("PRO997/PRO908 (37-20-B03-sc01 scFv) (scFv, VL-linker-VH, VH4 CDR graft; PRO997 was made in CHO-S cells, PRO908 in bacteria; also called 37-20-B03 CDR) scFv: DIQMTQSPSSLSASVGDRVTITCQASQSIGTYLAWYQQKPGKAPKLLIYRAFILASGVPSRFSGSGSGTDFTLTISSLQPEDFATYYCQSNFYSDSTTIGPNAFGTGTKVTVLGGGGGSGGGGSGGGGSGGGGSQVQLQESGPGLVKPSETLSLTCKVSGFSFNSDYWIYWIRQPPGKGLEWIGSIYGGSSGNTQYASWAQGRVTISVDSSKNQFSLKLSSVTAADTAVYYCARGYVDYGGATDLWGQGTLVTVSS", ">", 11.77),
    ("PRO1183 (33-03-G02-sc03 scFv) (scFv, also called 33_03_G02 sc03 Full) scFv: DFQLTQSPSSLSASVGDRVTITCQASQSINDYLAWYQQKPGKSPKLLIYKASTLASGVPSRFSGSGSGTDFTLTISSLQPEDFATYYCQQGYIITDIDNVFGTGTKVTVLGGGGGSGGGGSGGGGSGGGGSQSQLQESGPGLVKPSETLSLTCKASGFSFSSGYDMCWVRQPPGKGLEWIACVVAGSVDITYYASWAKGRVTISKDSSKNQVSLKLSSVTAADTAVYFCARKDAYSDAFNLWGQGTLVTVSS", "=", 10.93),
]
